- system: human FASN (Homo sapiens)
- Construct: was purified from SKBR3 cells using procedures modified from those in Jayakumar et al; endogenous in cells; host or cells: SKBR3 human breast cancer cells (ATCC); Endogenous enzyme purified by ammonium sulfate precipitation and a mono Q column
- Sequence (P49327 whole entry): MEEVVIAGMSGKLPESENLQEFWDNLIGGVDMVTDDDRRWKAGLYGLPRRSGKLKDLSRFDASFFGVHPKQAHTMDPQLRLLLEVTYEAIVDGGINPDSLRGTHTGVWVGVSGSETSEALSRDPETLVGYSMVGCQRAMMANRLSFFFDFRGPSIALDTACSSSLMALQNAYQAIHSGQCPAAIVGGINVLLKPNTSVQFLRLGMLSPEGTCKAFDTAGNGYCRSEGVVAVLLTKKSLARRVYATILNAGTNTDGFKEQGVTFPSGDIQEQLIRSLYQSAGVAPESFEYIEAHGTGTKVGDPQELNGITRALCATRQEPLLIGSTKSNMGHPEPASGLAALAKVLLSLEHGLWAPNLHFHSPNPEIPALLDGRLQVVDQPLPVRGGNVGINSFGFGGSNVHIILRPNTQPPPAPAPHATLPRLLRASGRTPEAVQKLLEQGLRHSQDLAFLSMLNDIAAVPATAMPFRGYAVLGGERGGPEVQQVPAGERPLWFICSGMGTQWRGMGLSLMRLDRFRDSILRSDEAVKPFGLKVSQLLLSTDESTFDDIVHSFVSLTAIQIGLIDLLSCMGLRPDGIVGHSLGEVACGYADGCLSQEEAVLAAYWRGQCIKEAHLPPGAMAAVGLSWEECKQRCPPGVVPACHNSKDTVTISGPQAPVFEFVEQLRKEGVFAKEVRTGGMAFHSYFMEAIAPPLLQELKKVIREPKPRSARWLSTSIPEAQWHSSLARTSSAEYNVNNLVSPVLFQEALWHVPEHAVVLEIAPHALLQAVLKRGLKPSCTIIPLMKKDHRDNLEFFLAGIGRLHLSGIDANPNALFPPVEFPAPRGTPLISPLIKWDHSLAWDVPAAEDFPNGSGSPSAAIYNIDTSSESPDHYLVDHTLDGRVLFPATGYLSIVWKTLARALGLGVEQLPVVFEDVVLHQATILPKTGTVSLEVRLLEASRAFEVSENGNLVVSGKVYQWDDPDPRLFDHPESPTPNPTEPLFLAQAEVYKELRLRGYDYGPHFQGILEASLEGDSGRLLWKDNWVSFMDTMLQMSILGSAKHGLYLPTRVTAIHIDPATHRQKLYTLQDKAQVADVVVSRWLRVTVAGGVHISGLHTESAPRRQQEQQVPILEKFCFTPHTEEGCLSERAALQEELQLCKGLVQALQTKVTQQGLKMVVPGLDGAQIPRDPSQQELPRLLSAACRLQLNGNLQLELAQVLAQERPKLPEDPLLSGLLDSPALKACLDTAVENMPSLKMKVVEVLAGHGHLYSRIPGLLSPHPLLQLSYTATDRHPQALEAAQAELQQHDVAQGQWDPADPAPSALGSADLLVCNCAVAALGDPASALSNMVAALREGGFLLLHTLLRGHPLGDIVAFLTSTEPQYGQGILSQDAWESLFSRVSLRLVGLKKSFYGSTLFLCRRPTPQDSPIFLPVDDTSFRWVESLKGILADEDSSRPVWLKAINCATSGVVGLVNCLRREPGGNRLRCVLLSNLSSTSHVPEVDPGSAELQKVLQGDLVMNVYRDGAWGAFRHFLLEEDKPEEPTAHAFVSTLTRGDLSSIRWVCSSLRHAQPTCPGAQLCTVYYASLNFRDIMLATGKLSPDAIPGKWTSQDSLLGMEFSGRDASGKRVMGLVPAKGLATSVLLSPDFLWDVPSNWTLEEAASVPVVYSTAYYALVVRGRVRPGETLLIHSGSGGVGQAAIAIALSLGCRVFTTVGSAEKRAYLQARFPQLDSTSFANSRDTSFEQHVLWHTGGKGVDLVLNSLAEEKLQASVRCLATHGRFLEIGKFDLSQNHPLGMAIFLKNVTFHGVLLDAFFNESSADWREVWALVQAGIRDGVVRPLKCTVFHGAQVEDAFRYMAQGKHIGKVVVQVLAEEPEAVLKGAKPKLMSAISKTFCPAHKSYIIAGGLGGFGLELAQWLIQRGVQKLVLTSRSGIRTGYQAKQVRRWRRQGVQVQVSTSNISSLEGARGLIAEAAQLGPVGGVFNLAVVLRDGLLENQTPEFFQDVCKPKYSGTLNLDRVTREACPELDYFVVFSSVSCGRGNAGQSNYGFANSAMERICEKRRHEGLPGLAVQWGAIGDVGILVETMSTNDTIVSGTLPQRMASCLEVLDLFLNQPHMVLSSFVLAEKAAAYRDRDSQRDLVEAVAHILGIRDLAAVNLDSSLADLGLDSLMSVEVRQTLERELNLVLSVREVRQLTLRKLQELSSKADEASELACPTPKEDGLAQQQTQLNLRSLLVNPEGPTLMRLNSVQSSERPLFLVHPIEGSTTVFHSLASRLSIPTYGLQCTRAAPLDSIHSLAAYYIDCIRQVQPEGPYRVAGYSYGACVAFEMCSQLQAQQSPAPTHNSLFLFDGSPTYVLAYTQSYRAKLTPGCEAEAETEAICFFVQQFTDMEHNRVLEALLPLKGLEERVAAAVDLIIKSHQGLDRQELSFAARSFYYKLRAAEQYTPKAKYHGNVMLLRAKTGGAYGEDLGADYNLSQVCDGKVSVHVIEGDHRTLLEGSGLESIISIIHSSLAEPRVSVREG
- assay: FASN NADPH Consumption Assay
- Type: biochemical
- particulars: human FASN purified from SKBR3 cells; starred symbols
readout.type: IC50

Can you look up the measured IC50 of COc1ccccc1-n1nnn(C(=O)N(c2ccccc2)c2ccc(C(=O)O)cc2)c1=O for me?
< 0.06 µM

Any idea what its IC50 is? The compound is CN(C(=O)n1nnn(-c2ccccc2Cl)c1=O)c1ccccn1
1 to 10 µM

I would be grateful if you could share the reported IC50 for CCN(C(=O)n1nnn(-c2ccccc2C(C)C)c1=O)C1CCCCC1 .
1 to 10 µM

Field request: IC50 | item: CCN(C(=O)n1nnn(-c2cccc(C(F)(F)F)c2)c1=O)C1CCCCC1
> 10 µM

Any idea what IC50 was measured for O=C(N(O)C1CCCCC1)n1nnn(-c2c(F)cccc2F)c1=O ?
0.06 to 0.25 µM

Reported IC50, compound CCN(C(=O)n1nnn(-c2c(F)cccc2F)c1=O)c1ccccc1-c1ccccc1 : ____
1 to 10 µM

Item under review: CCN(C(=O)n1nnn(-c2cccc(F)c2)c1=O)C1CCCCC1 . Reported IC50?
> 10 µM

Tell me the measured IC50 of CCN(C(=O)n1nnn(-c2c(Cl)cccc2Cl)c1=O)[C@@H]1CCC[C@@H](C(=O)N2CCOCC2)C1 , please.
1 to 10 µM

Which IC50 is reported for this compound? CN(CCc1ccccc1)C(=O)n1nnn(-c2ccccc2Cl)c1=O
> 10 µM

// lookup IC50 for O=C(C1CCCN(C(=O)n2nnn(-c3c(Cl)cccc3Cl)c2=O)C1)N1CCCCC1 (stereo not shown)
1 to 10 µM

###

- system: human FASN (Homo sapiens)
- Construct: was purified from SKBR3 cells using procedures modified from those in Jayakumar et al; endogenous in cells; host or cells: SKBR3 human breast cancer cells (ATCC); Endogenous enzyme purified by ammonium sulfate precipitation and a mono Q column
- assay: FASN NADPH Consumption Assay
- Format: biochemical
- particulars: human FASN purified from SKBR3 cells; starred symbols
pIC50: −log10 of the molar value.
readout.type: pIC50

Could you share which pIC50 value was measured for CCN(C(=O)n1nnn(-c2c(Cl)cccc2Cl)c1=O)C1CCC(C(=O)N2CCN(C)CC2)CC1 (centres unmarked) ?
< 5.00

Data request, read-out pIC50, for O=C(O)c1ccc(N(CCc2cccnc2)C(=O)n2nnn(-c3c(Cl)cccc3Cl)c2=O)cc1
5.00 to 6.00

Value lookup for pIC50; key = CCN(C(=O)n1nnn(-c2c(Cl)cccc2Cl)c1=O)c1ccc([N+](=O)[O-])cc1F
6.00 to 6.60

Value lookup for pIC50; key = C=CCN(C(=O)n1nnn(-c2c(Cl)cccc2Cl)c1=O)c1ccccc1
5.00 to 6.00

Looking for the measured pIC50 of CCN(C(=O)n1nnn(-c2ccccc2OC)c1=O)c1ccc(OC)c(C(=O)O)c1 , can you help?
6.00 to 6.60

Recorded pIC50 of CCN(C(=O)n1nnn(-c2ccc(N(C)C)cc2)c1=O)C1CCCCC1 , please.
5.00 to 6.00

Quick one: pIC50 of CN(C(=O)n1nnn(-c2c(F)cccc2F)c1=O)c1ccc(Br)cc1 ?
6.60 to 7.22

Record request: pIC50 value, item CN(Cc1ccccc1)C(=O)n1nnn(-c2ccccc2Cl)c1=O
5.00 to 6.00

Fill in the blank: the reported pIC50 of CCN(C(=O)n1nnn(-c2c(Cl)cccc2Cl)c1=O)C1CCN(C)CC1 is ____.
< 5.00

Given the compound CCNC(=O)NCCCN(C(=O)n1nnn(-c2c(Cl)cccc2Cl)c1=O)C1CCCCC1 , what is its reported pIC50?
5.00 to 6.00

# get_value(readout='pIC50', item= CCN(C(=O)n1nnn(-c2ccccc2Oc2ccccc2)c1=O)C1CCCCC1 )
5.00 to 6.00

Sample CCN(C(=O)n1nnn(-c2c(Cl)cccc2C(F)(F)F)c1=O)C1CCCCC1 — what was its pIC50?
< 5.00

Dear colleague, I am looking for the recorded pIC50 of the following compound: CS(=O)(=O)NC1CCCN(C(=O)n2nnn(-c3c(Cl)cccc3Cl)c2=O)C1 (centres unmarked)
< 5.00

Which pIC50 value belongs to CCN(C(=O)n1nnn(-c2ccccc2)c1=O)c1ccc(C(=O)O)c(OC)c1 ?
6.60 to 7.22

Given the compound CCc1ccccc1-n1nnn(C(=O)N(CC)C2CCCCC2)c1=O , what is its reported pIC50?
5.00 to 6.00

Endpoint output: pIC50 of C[C@@H]1CC(=O)[C@@H]2CCCC[C@H]2N1C(=O)n1nnn(-c2c(F)cccc2F)c1=O . Value?
5.00 to 6.00

For CCN(C(=O)n1nnn(-c2ccc(C(F)(F)F)cc2)c1=O)C1CCCCC1 , what is its reported pIC50?
< 5.00

Could you tell me which pIC50 is on file for O=C(N(CCO)c1ccccc1)n1nnn(-c2c(F)cccc2F)c1=O ?
5.00 to 6.00

Any idea what pIC50 was measured for CCN(C(=O)n1nnn(-c2c(Cl)cccc2Cl)c1=O)C1CCN(C(=O)Cc2ccccc2)CC1 ?
6.00 to 6.60

Fill blank: measured pIC50 of the compound CCN(C(=O)n1nnn(-c2cccc(Cl)c2Cl)c1=O)C1CCCCC1 is ____.
5.00 to 6.00
